Listed next: entries and their corresponding cell viability.
# Test system: myeloid leukemia patient primary cells Pat.6
# ASSAY METHOD TEXT: cell viability (% survival relative to DMSO control); higher = less cytotoxic
# RECORDED CONDITIONS: 10 nM; 72 h
Field format: number, assumed %, no unit text.

SMILES STR | cell viability [%]
CO[C@H]1C[C@@H]2CC[C@@H](C)[C@@](O)(O2)C(=O)C(=O)N2CCCC[C@H]2C(=O)O[C@H]([C@H](C)C[C@@H]2CC[C@@H](OC(=O)C(C)(CO)CO)[C@H](OC)C2)CC(=O)[C@H](C)/C=C(\C)[C@@H](O)[C@@H](OC)C(=O)[C@H](C)C[C@H](C)/C=C/C=C/C=C/1C | 88.2
Cn1cc(-c2ccncc2)c(-c2ccc(OCc3ccc4ccccc4n3)cc2)n1 | 88.2

IN: What does the record list as cell viability for `Cc1[nH]nc(C(F)(F)F)c1Cc1sc2c(c1C(=O)N1C[C@](C)(O)CO1)c(=O)n(C)c(=O)n2C(C)C` ?
OUT: 83.2

IN: Now try `CN(CCOc1ccc(Cc2sc(O)nc2O)cc1)c1ccccn1` .
OUT: 85.4

###

# System: myeloid leukemia patient primary cells Pat.8
# ASSAY METHOD TEXT: cell viability (% survival relative to DMSO control); higher = less cytotoxic
# RECORDED CONDITIONS: 100 nM; 72 h
TEST READOUT: cell viability (%)
Field format: number, assumed %, no unit text.

Illustrative cases are given below, each with its answer.
SMILES STR | TARGET SYSTEM | ASSAY VALUE
C[C@]12C=CC(=O)C=C1CC[C@@H]1[C@@H]2[C@@H](O)C[C@@]2(C)[C@H]1CC[C@]2(O)C(=O)CO | myeloid leukemia patient primary cells Pat.8 | 87.3
O=C1C(SCCO)=C(SCCO)C(=O)c2ccccc21 | myeloid leukemia patient primary cells Pat.8 | 95.1
CC(=O)Nc1nc(C)c(-c2ccc(Cl)c(S(=O)(=O)NCCO)c2)s1 | myeloid leukemia patient primary cells Pat.8 | 87.9

Lab note: next molecule to report on.
IN: What does the record list as cell viability for `CN1CCN(CCCN2c3ccccc3Sc3ccc(C(F)(F)F)cc32)CC1` ?
OUT: 91.3

###

# Tested on: NOMO-1
# ASSAY METHOD TEXT: cell viability (% survival relative to DMSO control, bortezomib = 0%); higher = less cytotoxic
# RECORDED CONDITIONS: 1 nM; 72 h
Structures can show the parent of a compound that is named as a salt.
Listed next: entries and their corresponding cell viability.
Field format: number, assumed %, no unit text.

Illustrative cases are given below, each with its answer.
MOLECULE | TEST READOUT | ASSAY VALUE
Cc1cccc(Nc2cc(Cl)nc(SCC(=O)O)n2)c1C | cell viability | 106
CC(C)CC(=O)N[C@H](C(=O)N[C@H](C(=O)N[C@@H](CC(C)C)[C@@H](O)CC(=O)N[C@@H](C)C(=O)N[C@@H](CC(C)C)[C@@H](O)CC(=O)O)C(C)C)C(C)C | cell viability | 98.3
CCN(CCO)CCCC(C)Nc1ccnc2cc(Cl)ccc12 (stereo not drawn) [Hydroxychloroquine sulfate] | cell viability | 94.4
CCOC(=O)c1sc(NC(=O)c2ccco2)c(SC#N)c1C | cell viability | 99.8
CC/C=C\C[C@H]1C(=O)CC[C@@H]1CC(=O)OC [Methyl jasmonate] | cell viability | 104
C[C@]12C=CC(=O)C=C1CC[C@@H]1[C@@H]2[C@@H](O)C[C@@]2(C)[C@H]1CC[C@]2(O)C(=O)CO | cell viability | 93.3
CCc1oc2ccccc2c1C(=O)c1cc(Br)c(O)c(Br)c1 | cell viability | 95.1
CCn1c(=Cc2cccc[n+]2CC)sc(=C2Sc3ccccc3N2C)c1=O | cell viability | 98
O=C(O)CC[N+](=O)[O-] | cell viability | 94.8
N#Cc1ccc(N(Cc2ccc(Br)cc2)n2cnnc2)cc1 | cell viability | 103

IN: What does the record list as cell viability for N#C/C(=C\c1ccc(O)cc1)C(=O)O [alpha-cyano-4-hydroxycinnamic acid] ?
OUT: 99.5

IN: Now try C=CCN(C)CCCCCCOc1ccc(C(=O)c2ccc(Br)cc2)c(F)c1.O=C(O)/C=C/C(=O)O [Ro 48-8071 fumarate] .
OUT: 104

IN: Now try `OC[C@H]1O[C@@H](n2cnc3c2N=CNC[C@H]3O)C[C@@H]1O` .
OUT: 105

IN: Now try `O=C1C(SCCO)=C(SCCO)C(=O)c2ccccc21` .
OUT: 105

IN: Now try `Cc1c2c(=O)n(-c3ccccc3Cl)[nH]c2cc(=O)n1Cc1ccccn1` .
OUT: 102

IN: Now try `C=CC(=O)c1ccc(O)cc1` .
OUT: 88

IN: Now try `CCCc1nc(C)c2c(=O)nc(-c3cc(S(=O)(=O)N4CCN(CC)CC4)ccc3OCC)[nH]n12` .
OUT: 94.4

IN: Now try `OC[C@H]1NC[C@H](O)[C@@H](O)[C@@H]1O` .
OUT: 95.8

The origin of these recorded values is the supplement of paper PMC8671470.
